Origin of measurements: paper PMC12416549

Target: T1, TNFR1 (Homo sapiens, UniProt P19438)
T1 chain: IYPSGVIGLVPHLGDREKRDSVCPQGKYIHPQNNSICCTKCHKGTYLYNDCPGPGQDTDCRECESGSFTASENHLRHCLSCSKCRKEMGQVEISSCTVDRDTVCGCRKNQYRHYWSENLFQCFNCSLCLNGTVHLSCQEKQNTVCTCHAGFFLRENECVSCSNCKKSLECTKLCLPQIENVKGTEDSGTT
Assay: yeast display SC50
Measured apparent Kd (screen), listed per entry.
Assay Readout: apparent Kd (screen) (nM)

E34N (designed binder) SMEEEVEKAAKEYEKKKKEAIEKHLEKLKAKDKNAAERFLKELEEAAKEYAKDEAKTMSEEEAKRRAKKYKEKVLLSELSEEEQKEIKEAEEKLVRTILKYVEEAAK: 0.49
E92L (designed binder) SMEEEVEKAAKEYEKKKKEAIEKHLEKLKAKDKEAAERFLKELEEAAKEYAKDEAKTMSEEEAKRRAKKYKEKVLLSELSEEEQKEIKEAELKLVRTILKYVEEAAK: 10.4
M58H (designed binder) SMEEEVEKAAKEYEKKKKEAIEKHLEKLKAKDKEAAERFLKELEEAAKEYAKDEAKTHSEEEAKRRAKKYKEKVLLSELSEEEQKEIKEAEEKLVRTILKYVEEAAK: 7.78
Y13S (designed binder) SMEEEVEKAAKESEKKKKEAIEKHLEKLKAKDKEAAERFLKELEEAAKEYAKDEAKTMSEEEAKRRAKKYKEKVLLSELSEEEQKEIKEAEEKLVRTILKYVEEAAK: 0.49
A90G (designed binder) SMEEEVEKAAKEYEKKKKEAIEKHLEKLKAKDKEAAERFLKELEEAAKEYAKDEAKTMSEEEAKRRAKKYKEKVLLSELSEEEQKEIKEGEEKLVRTILKYVEEAAK: 0.49
L79Y (designed binder) SMEEEVEKAAKEYEKKKKEAIEKHLEKLKAKDKEAAERFLKELEEAAKEYAKDEAKTMSEEEAKRRAKKYKEKVLLSEYSEEEQKEIKEAEEKLVRTILKYVEEAAK: 12.5
K8G (designed binder) SMEEEVEGAAKEYEKKKKEAIEKHLEKLKAKDKEAAERFLKELEEAAKEYAKDEAKTMSEEEAKRRAKKYKEKVLLSELSEEEQKEIKEAEEKLVRTILKYVEEAAK: 0.593
R66E (designed binder) SMEEEVEKAAKEYEKKKKEAIEKHLEKLKAKDKEAAERFLKELEEAAKEYAKDEAKTMSEEEAKREAKKYKEKVLLSELSEEEQKEIKEAEEKLVRTILKYVEEAAK: 18.3
E34Q (designed binder) SMEEEVEKAAKEYEKKKKEAIEKHLEKLKAKDKQAAERFLKELEEAAKEYAKDEAKTMSEEEAKRRAKKYKEKVLLSELSEEEQKEIKEAEEKLVRTILKYVEEAAK: 0.446
S77E (designed binder) SMEEEVEKAAKEYEKKKKEAIEKHLEKLKAKDKEAAERFLKELEEAAKEYAKDEAKTMSEEEAKRRAKKYKEKVLLEELSEEEQKEIKEAEEKLVRTILKYVEEAAK: 0.869
K23D (designed binder) SMEEEVEKAAKEYEKKKKEAIEDHLEKLKAKDKEAAERFLKELEEAAKEYAKDEAKTMSEEEAKRRAKKYKEKVLLSELSEEEQKEIKEAEEKLVRTILKYVEEAAK: 0.49
M2N (designed binder) SNEEEVEKAAKEYEKKKKEAIEKHLEKLKAKDKEAAERFLKELEEAAKEYAKDEAKTMSEEEAKRRAKKYKEKVLLSELSEEEQKEIKEAEEKLVRTILKYVEEAAK: 0.49
K16M (designed binder) SMEEEVEKAAKEYEKMKKEAIEKHLEKLKAKDKEAAERFLKELEEAAKEYAKDEAKTMSEEEAKRRAKKYKEKVLLSELSEEEQKEIKEAEEKLVRTILKYVEEAAK: 0.446
K27C (designed binder) SMEEEVEKAAKEYEKKKKEAIEKHLECLKAKDKEAAERFLKELEEAAKEYAKDEAKTMSEEEAKRRAKKYKEKVLLSELSEEEQKEIKEAEEKLVRTILKYVEEAAK: 0.593
M2F (designed binder) SFEEEVEKAAKEYEKKKKEAIEKHLEKLKAKDKEAAERFLKELEEAAKEYAKDEAKTMSEEEAKRRAKKYKEKVLLSELSEEEQKEIKEAEEKLVRTILKYVEEAAK: 1.05
S1R (designed binder) RMEEEVEKAAKEYEKKKKEAIEKHLEKLKAKDKEAAERFLKELEEAAKEYAKDEAKTMSEEEAKRRAKKYKEKVLLSELSEEEQKEIKEAEEKLVRTILKYVEEAAK: 0.869
